Target: BCL-2 (binding to BAD peptide) (Homo sapiens, UniProt P10415)
Sequence (P10415 whole entry): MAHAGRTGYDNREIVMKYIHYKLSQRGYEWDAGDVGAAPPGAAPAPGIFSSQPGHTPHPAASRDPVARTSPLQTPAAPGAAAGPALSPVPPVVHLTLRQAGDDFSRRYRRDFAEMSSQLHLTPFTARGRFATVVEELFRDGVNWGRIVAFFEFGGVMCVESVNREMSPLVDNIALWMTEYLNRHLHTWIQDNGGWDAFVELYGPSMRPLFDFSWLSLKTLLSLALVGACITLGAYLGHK
Measured IC50 values are reported for all entries that follow.

# annotated cases, reported IC50 shown
CCCCN(CCCC)C(=O)c1cc(C)n(-c2ccc(NC(=O)COc3ccccc3Cl)cc2C(=O)N2Cc3ccccc3C[C@H]2CO)n1 = 4.85 to 4.93 µM
CCCCN(CCCC)C(=O)c1cc(C)n(-c2ccc(NC(=O)c3ccccc3COc3ccccc3)cc2C(=O)N2Cc3ccccc3C[C@H]2CO)n1 = 1.27 to 1.35 µM

# `CCCCN(CCCC)C(=O)c1cc(C)n(-c2ccc(NC(=O)[C@@H](C)c3ccccc3)cc2C(=O)N2Cc3ccccc3C[C@H]2CO)n1` with BCL-2 (binding to BAD peptide) (Homo sapiens, UniProt P10415): IC50 is 0.0842 to 0.0885 µM

###

Each entry below carries its measured IC50, system: BCL-2 (binding to BAK peptide) (Homo sapiens, UniProt P10415).
Sequence (P10415 whole entry): as above

# annotated cases, reported IC50 shown
CCCCN(CCCC)C(=O)c1cc(C)n(-c2ccc(NC(=O)CCC(=O)O)cc2C(=O)N2Cc3ccccc3C[C@H]2CO)n1 = 0.153 to 0.175 µM
CCCCN(CCCC)C(=O)c1cc(C)n(-c2ccc(NC(=O)C(CC(=O)N(C)C)c3ccccc3)cc2C(=O)N2Cc3ccccc3C[C@H]2CO)n1 (stereo partly drawn) [Example 36] = 0.111 to 0.144 µM

# `CCCCN(CCCC)C(=O)c1cc(C)n(-c2ccc(NC(=O)Cc3ccc(OC)c(OC)c3)cc2C(=O)N2Cc3ccccc3C[C@H]2CO)n1` with BCL-2 (binding to BAK peptide) (Homo sapiens, UniProt P10415): IC50 is 0.0954 to 0.0982 µM

###

Molecular target: BCL-2 (binding to BAK peptide) (Homo sapiens, UniProt P10415)
pIC50: −log10 of the molar value.
Measured pIC50 values are reported for all entries that follow.

CCCCN(CCCC)C(=O)c1cc(C)n(-c2ccc(NC(=O)C3CC(=O)N(Cc4ccccc4)C3)cc2C(=O)N2Cc3ccccc3C[C@H]2CO)n1 (stereo partly drawn) = 6.83 to 6.94

Short answer for `CCCCN(CCCC)C(=O)c1cc(C)n(-c2ccc(NC(=O)Cc3ccccc3Cl)cc2C(=O)N2Cc3ccccc3C[C@H]2CO)n1` : pIC50 was 6.71 to 6.72

Short answer for CCCCC(CCCC)C(=O)c1cc(C)n(-c2ccc(NC(=O)C(CC(=O)O)C3CCCCC3)cc2C(=O)N2Cc3ccccc3C[C@H]2CO)n1 (stereo partly drawn) : pIC50 was 7.28 to 7.30

Short answer for CCCCN(CCCC)C(=O)c1cc(C)n(-c2ccc(NC(=O)C(CCNC(C)=O)c3ccccc3)cc2C(=O)C2Cc3ccccc3C[C@H]2CO)n1 (stereo partly drawn) : pIC50 was 7.09

Short answer for `CCCCN(CCCC)C(=O)c1cc(C)n(-c2ccc(NC(=O)c3cn(C)nc3C(F)(F)F)cc2C(=O)N2Cc3ccccc3C[C@H]2CO)n1` : pIC50 was 6.03 to 6.14

Short answer for `CCCCN(CCCC)C(=O)c1cc(C)n(-c2ccc(NC(=O)c3ccc4c(c3)N=S=N4)cc2C(=O)N2Cc3ccccc3C[C@H]2CO)n1` : pIC50 was 6.02 to 6.06

Short answer for `CCCCN(CCCC)C(=O)c1cc(C)n(-c2ccc(NC(=O)CS(=O)(=O)c3ccccc3)cc2C(=O)N2Cc3ccccc3C[C@H]2CO)n1` : pIC50 was 6.45 to 6.47

Short answer for `CCCCN(CCCC)C(=O)c1cc(C)n(-c2ccc(NC(=O)Cc3ccccc3F)cc2C(=O)N2Cc3ccccc3C[C@H]2CO)n1` : pIC50 was 7.17 to 7.20

Short answer for `CCCCN(CCCC)C(=O)c1cc(C)n(-c2ccc(NC(=O)COc3ccc(OC)cc3)cc2C(=O)N2Cc3ccccc3C[C@H]2CO)n1` : pIC50 was 5.06 to 5.19
